Assay: Rat PK (p.o.)
Assay type: in vivo
Details: plasma, po, 10 mg/kg, Vehicle (0.02N HCl sol.)
Counter-ions that a name gives are not always drawn.
Hi, to clarify the labels: true (1) covers Cmax from 100 ng/mL upward, false (0) covers anything below 100 ng/mL.

Compound	Cat
CC(C)[C@@H]1NC(=O)C(C)(C)NC(=O)c2csc(n2)CNC(=O)C[C@@H](/C=C/CCSC(=O)[C@H](C)N)OC1=O [Example 4, Oxalate]	false (0)
CC(C)[C@@H]1NC(=O)C(C)(C)NC(=O)c2csc(n2)CNC(=O)C[C@@H](/C=C/CCSC(=O)CN(C)C)OC1=O [Example 6]	true (1)
CC(C)[C@H](N)C(=O)SCC/C=C/[C@@H]1CC(=O)NCc2nc(cs2)C(=O)NC(C)(C)C(=O)N[C@@H](C(C)C)C(=O)O1.Cl [Example 2]	true (1)
CC(C)[C@@H]1NC(=O)C(C)(C)NC(=O)c2csc(n2)CNC(=O)C[C@@H](/C=C/CCSC(=O)[C@H](N)C(C)C)OC1=O.Cl [Example 1]	false (0)
CC(C)[C@@H]1NC(=O)C(C)(C)NC(=O)c2csc(n2)CNC(=O)C[C@@H](/C=C/CCSC(=O)c2cccnc2)OC1=O [Example 7]	true (1)

---

Experiment: Rat PK (p.o.)
Assay type: in vivo
Conditions: plasma, po, 10 mg/kg, Vehicle (0.02N HCl sol.)
Structures can show the parent of a compound that is named as a salt.

Compound	Endpoint unit	Tmax
CC(C)[C@H](N)C(=O)SCC/C=C/[C@@H]1CC(=O)NCc2nc(cs2)C(=O)NC(C)(C)C(=O)N[C@@H](C(C)C)C(=O)O1.Cl [Example 2]	min	28.8
CC(C)[C@@H]1NC(=O)C(C)(C)NC(=O)c2csc(n2)CNC(=O)C[C@@H](/C=C/CCSC(=O)c2cccnc2)OC1=O [Example 7]	min	19.8
CC(C)[C@@H]1NC(=O)C(C)(C)NC(=O)c2csc(n2)CNC(=O)C[C@@H](/C=C/CCSC(=O)[C@H](C)N)OC1=O [Example 4, Oxalate]	min	60
CC(C)[C@@H]1NC(=O)C(C)(C)NC(=O)c2csc(n2)CNC(=O)C[C@@H](/C=C/CCSC(=O)CN(C)C)OC1=O [Example 6]	min	49.8
CC(C)[C@@H]1NC(=O)C(C)(C)NC(=O)c2csc(n2)CNC(=O)C[C@@H](/C=C/CCSC(=O)[C@H](N)C(C)C)OC1=O.Cl [Example 1]	min	25.2

---

Assay: Aqueous solubility at two pH levels
Assay type: physicochemical
Conditions: aqueous solution, pH 3, aqueous buffer
Structures can show the parent of a compound that is named as a salt.
Observable: solubility (µg/mL)

Compound	Endpoint unit	Quantitative readout
CC(C)[C@@H]1NC(=O)C(C)(C)NC(=O)c2csc(n2)CNC(=O)C[C@@H](/C=C/CCSC(=O)[C@H](N)C(C)C)OC1=O.Cl	µg/mL	8670
CC(C)[C@@H]1NC(=O)C(C)(C)NC(=O)c2csc(n2)CNC(=O)C[C@@H](/C=C/CCSC(=O)[C@@H](C)N)OC1=O [Example 5, Oxalate]	µg/mL	45400
CC(C)[C@@H]1NC(=O)C(C)(C)NC(=O)c2csc(n2)CNC(=O)C[C@@H](/C=C/CCSC(=O)CN(C)C)OC1=O	µg/mL	2450

---

Assay: Aqueous solubility at two pH levels
Type: physicochemical
Details: aqueous solution, pH 6, aqueous buffer
Counter-ions that a name gives are not always drawn.
Observable: solubility (mg/mL)

Compound	Observable	Endpoint unit	Quantitative readout
CC(C)[C@@H]1NC(=O)C(C)(C)NC(=O)c2csc(n2)CNC(=O)C[C@@H](/C=C/CCSC(=O)[C@@H](C)N)OC1=O [Example 5, Oxalate]	solubility	mg/mL	41.8
CC(C)[C@@H]1NC(=O)C(C)(C)NC(=O)c2csc(n2)CNC(=O)C[C@@H](/C=C/CCSC(=O)[C@H](C)N)OC1=O [Example 4, Oxalate]	solubility	mg/mL	25.2
CC(C)[C@H](N)C(=O)SCC/C=C/[C@@H]1CC(=O)NCc2nc(cs2)C(=O)NC(C)(C)C(=O)N[C@@H](C(C)C)C(=O)O1.Cl	solubility	mg/mL	18
CC(C)[C@@H]1NC(=O)C(C)(C)NC(=O)c2csc(n2)CNC(=O)C[C@@H](/C=C/CCSC(=O)[C@H](N)C(C)C)OC1=O.Cl	solubility	mg/mL	10.5
CC(C)[C@@H]1NC(=O)C(C)(C)NC(=O)c2csc(n2)CNC(=O)C[C@@H](/C=C/CCSC(=O)CN(C)C)OC1=O	solubility	mg/mL	2.32

---

Assay: Rat PK (p.o.)
Format: in vivo
Details: plasma, po, 15 mg/kg, Vehicle (0.1N citrate buffer)
Observable: Cmax (ng/mL)

Molecular string	Observable	Quantitative readout
CC(C)[C@H](N)C(=O)SCC/C=C/[C@@H]1CC(=O)NCc2nc(cs2)C(=O)NC(C)(C)C(=O)N[C@@H](C(C)C)C(=O)O1.O=S(=O)(O)c1ccccc1	Cmax	253

---

Assay: Rat PK (p.o.)
Format: in vivo
Conditions: plasma, po, 15 mg/kg, Vehicle (0.1N citrate buffer)
Observable: Tmax (min)

Compound	Observable	Quantitative readout
CC(C)[C@H](N)C(=O)SCC/C=C/[C@@H]1CC(=O)NCc2nc(cs2)C(=O)NC(C)(C)C(=O)N[C@@H](C(C)C)C(=O)O1.O=S(=O)(O)c1ccccc1 [Example 3]	Tmax	36

---

Parameter: AUC(0-inf). Scope: all listed entries.
Assay: Rat PK (p.o.)
Assay type: in vivo
Conditions: plasma, po, 10 mg/kg, Vehicle (0.02N HCl sol.)
Counter-ions that a name gives are not always drawn.
Observable: AUC(0-inf) (ng·h/mL)

Compound	Observable	Endpoint unit	Quantitative readout
CC(C)[C@@H]1NC(=O)C(C)(C)NC(=O)c2csc(n2)CNC(=O)C[C@@H](/C=C/CCSC(=O)[C@H](C)N)OC1=O [Example 4, Oxalate]	AUC(0-inf)	ng·h/mL	176
CC(C)[C@@H]1NC(=O)C(C)(C)NC(=O)c2csc(n2)CNC(=O)C[C@@H](/C=C/CCSC(=O)CN(C)C)OC1=O	AUC(0-inf)	ng·h/mL	272
CC(C)[C@@H]1NC(=O)C(C)(C)NC(=O)c2csc(n2)CNC(=O)C[C@@H](/C=C/CCSC(=O)c2cccnc2)OC1=O	AUC(0-inf)	ng·h/mL	240
CC(C)[C@H](N)C(=O)SCC/C=C/[C@@H]1CC(=O)NCc2nc(cs2)C(=O)NC(C)(C)C(=O)N[C@@H](C(C)C)C(=O)O1.Cl	AUC(0-inf)	ng·h/mL	267
CC(C)[C@@H]1NC(=O)C(C)(C)NC(=O)c2csc(n2)CNC(=O)C[C@@H](/C=C/CCSC(=O)[C@H](N)C(C)C)OC1=O.Cl	AUC(0-inf)	ng·h/mL	257

---

Test: Rat PK (p.o.)
Type: in vivo
Conditions: plasma, po, 15 mg/kg, Vehicle (0.1N citrate buffer)

Molecule	half-life (h)
CC(C)[C@H](N)C(=O)SCC/C=C/[C@@H]1CC(=O)NCc2nc(cs2)C(=O)NC(C)(C)C(=O)N[C@@H](C(C)C)C(=O)O1.O=S(=O)(O)c1ccccc1 [Example 3]	12.4

---

Parameter: half-life. Scope: all listed entries.
Assay: Rat PK (p.o.)
Assay type: in vivo
Conditions: plasma, po, 10 mg/kg, Vehicle (0.02N HCl sol.)
Structures can show the parent of a compound that is named as a salt.
Observable: half-life (h)

Compound	Endpoint unit	Quantitative readout
CC(C)[C@@H]1NC(=O)C(C)(C)NC(=O)c2csc(n2)CNC(=O)C[C@@H](/C=C/CCSC(=O)CN(C)C)OC1=O [Example 6]	h	5.86
CC(C)[C@@H]1NC(=O)C(C)(C)NC(=O)c2csc(n2)CNC(=O)C[C@@H](/C=C/CCSC(=O)c2cccnc2)OC1=O [Example 7]	h	6.88
CC(C)[C@H](N)C(=O)SCC/C=C/[C@@H]1CC(=O)NCc2nc(cs2)C(=O)NC(C)(C)C(=O)N[C@@H](C(C)C)C(=O)O1.Cl [Example 2]	h	8.23
CC(C)[C@@H]1NC(=O)C(C)(C)NC(=O)c2csc(n2)CNC(=O)C[C@@H](/C=C/CCSC(=O)[C@H](N)C(C)C)OC1=O.Cl [Example 1]	h	8.53
CC(C)[C@@H]1NC(=O)C(C)(C)NC(=O)c2csc(n2)CNC(=O)C[C@@H](/C=C/CCSC(=O)[C@H](C)N)OC1=O [Example 4, Oxalate]	h	6.09

---

Assay: Aqueous solubility at two pH levels
Type: physicochemical
Conditions: aqueous solution, pH 3, aqueous buffer
Structures can show the parent of a compound that is named as a salt.

Molecule	solubility
CC(C)[C@H](N)C(=O)SCC/C=C/[C@@H]1CC(=O)NCc2nc(cs2)C(=O)NC(C)(C)C(=O)N[C@@H](C(C)C)C(=O)O1.O=S(=O)(O)c1ccccc1 [Example 3]	7.5 mg/mL
CC(C)[C@@H]1NC(=O)C(C)(C)NC(=O)c2csc(n2)CNC(=O)C[C@@H](/C=C/CCSC(=O)[C@H](C)N)OC1=O [Example 4, Oxalate]	15.4 mg/mL
CC(C)[C@H](N)C(=O)SCC/C=C/[C@@H]1CC(=O)NCc2nc(cs2)C(=O)NC(C)(C)C(=O)N[C@@H](C(C)C)C(=O)O1.Cl [Example 2]	12.3 mg/mL
